Entries and their IC50 values follow.
Target: EGFR L858R/C797S (Homo sapiens, UniProt P00533, C797S/L858R)
Sequence (P00533 25-1210 C797S/L858R): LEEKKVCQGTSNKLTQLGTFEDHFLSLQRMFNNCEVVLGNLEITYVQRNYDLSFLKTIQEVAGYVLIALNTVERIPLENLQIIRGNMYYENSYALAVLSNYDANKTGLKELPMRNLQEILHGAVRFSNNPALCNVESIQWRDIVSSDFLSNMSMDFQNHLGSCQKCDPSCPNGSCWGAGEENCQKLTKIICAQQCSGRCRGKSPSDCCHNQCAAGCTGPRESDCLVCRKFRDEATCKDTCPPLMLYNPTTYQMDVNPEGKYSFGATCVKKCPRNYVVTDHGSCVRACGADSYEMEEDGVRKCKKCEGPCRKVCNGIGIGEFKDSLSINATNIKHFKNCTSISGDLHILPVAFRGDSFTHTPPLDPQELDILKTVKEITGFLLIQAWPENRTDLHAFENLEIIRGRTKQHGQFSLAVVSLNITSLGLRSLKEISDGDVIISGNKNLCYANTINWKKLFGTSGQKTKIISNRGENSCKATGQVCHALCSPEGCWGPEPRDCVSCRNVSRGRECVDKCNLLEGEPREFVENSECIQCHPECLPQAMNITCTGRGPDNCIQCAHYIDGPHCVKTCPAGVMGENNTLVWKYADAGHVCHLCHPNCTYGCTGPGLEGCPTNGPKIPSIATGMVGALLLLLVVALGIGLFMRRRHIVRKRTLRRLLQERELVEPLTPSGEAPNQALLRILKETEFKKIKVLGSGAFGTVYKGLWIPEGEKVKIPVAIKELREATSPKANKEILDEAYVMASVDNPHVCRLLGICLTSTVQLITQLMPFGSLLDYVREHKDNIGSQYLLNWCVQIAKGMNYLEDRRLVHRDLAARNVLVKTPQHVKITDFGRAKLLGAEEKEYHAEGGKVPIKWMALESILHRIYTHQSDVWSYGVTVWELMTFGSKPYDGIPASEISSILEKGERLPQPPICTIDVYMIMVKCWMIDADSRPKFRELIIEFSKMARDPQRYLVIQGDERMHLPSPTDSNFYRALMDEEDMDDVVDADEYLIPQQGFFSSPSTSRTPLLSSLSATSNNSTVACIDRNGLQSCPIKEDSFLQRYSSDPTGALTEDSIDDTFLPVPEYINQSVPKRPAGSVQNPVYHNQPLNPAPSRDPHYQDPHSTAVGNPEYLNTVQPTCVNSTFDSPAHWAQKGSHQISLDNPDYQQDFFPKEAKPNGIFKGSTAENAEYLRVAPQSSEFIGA
Test: Biochemical EGFR kinase assay (Lance Ultra TR-FRET), double mutant L858R/C797S
Conditions: Km ATP; read-out: IC50 L858R/C797S (nM) Km ATP
The response must be a number in nM with no trailing unit.

Sample answers from the record:
- molecule: "CN1CCN(Cc2ccc(-c3cnc(Nc4ccnc(-c5cnn(S(=O)(=O)C6CC6)c5)n4)cc3N[C@H]3CC[C@](O)(CO)CC3)nc2)CC1"
  IC50, nM: 0.4
- molecule: "CC(C)(O)c1cc(-c2cnc(Nc3ccnc(-c4cnn(S(=O)(=O)C5CC5)c4)n3)cc2N[C@H]2CC[C@@H](C(C)(C)O)CC2)ncc1F"
  IC50, nM: 4.1
- molecule: "CC(C)(O)c1ccc(-c2cnc(Nc3ccnc(-c4cnn(S(=O)(=O)C5CC5)c4)n3)cc2N[C@H]2CC[C@@](C)(O)CC2)nn1"
  IC50, nM: 0.4

Find IC50 (EGFR L858R/C797S (Homo sapiens, UniProt P00533, C797S/L858R)) for the entry CN1CCC(Oc2ccc(-c3cnc(Nc4ccnc(-c5cnn(CC(F)F)c5)n4)cc3NC3CCC(F)(F)C3)nc2)CC1 (stereo not drawn)
1.6

Find IC50 (EGFR L858R/C797S (Homo sapiens, UniProt P00533, C797S/L858R)) for the entry "CN1CCN(c2ccc(-c3cnc(Nc4ccnc(-c5cnn(S(=O)(=O)C6CC6)c5)n4)cc3N[C@H]3CC[C@@](C)(O)CC3)nn2)CC1"
0.2

Find IC50 (EGFR L858R/C797S (Homo sapiens, UniProt P00533, C797S/L858R)) for the entry "COC1CN(c2ccc(-c3cnc(Nc4ccnc(-c5cnn(S(=O)(=O)C6CC6)c5)n4)cc3N[C@H]3CC[C@@H](CO)CC3)nc2)C1"
0.8

Find IC50 (EGFR L858R/C797S (Homo sapiens, UniProt P00533, C797S/L858R)) for the entry "O=S(=O)(C1CC1)n1cc(-c2nccc(Nc3cc(N[C@H]4CC[C@@H](CO)CC4)c(-c4cc(N5CCC(F)(F)CC5)ccn4)cn3)n2)cn1"
12.9

Find IC50 (EGFR L858R/C797S (Homo sapiens, UniProt P00533, C797S/L858R)) for the entry "CN1CCN(Cc2ccnc(-c3cnc(Nc4ccnc(-c5cnn(S(=O)(=O)C6CC6)c5)n4)cc3N[C@H]3CC[C@@](C)(O)CC3)c2)CC1"
0.3
